Molecular target: hERG (KCNH2) (Homo sapiens, UniProt Q12809)
Sequence (Q12809 whole entry): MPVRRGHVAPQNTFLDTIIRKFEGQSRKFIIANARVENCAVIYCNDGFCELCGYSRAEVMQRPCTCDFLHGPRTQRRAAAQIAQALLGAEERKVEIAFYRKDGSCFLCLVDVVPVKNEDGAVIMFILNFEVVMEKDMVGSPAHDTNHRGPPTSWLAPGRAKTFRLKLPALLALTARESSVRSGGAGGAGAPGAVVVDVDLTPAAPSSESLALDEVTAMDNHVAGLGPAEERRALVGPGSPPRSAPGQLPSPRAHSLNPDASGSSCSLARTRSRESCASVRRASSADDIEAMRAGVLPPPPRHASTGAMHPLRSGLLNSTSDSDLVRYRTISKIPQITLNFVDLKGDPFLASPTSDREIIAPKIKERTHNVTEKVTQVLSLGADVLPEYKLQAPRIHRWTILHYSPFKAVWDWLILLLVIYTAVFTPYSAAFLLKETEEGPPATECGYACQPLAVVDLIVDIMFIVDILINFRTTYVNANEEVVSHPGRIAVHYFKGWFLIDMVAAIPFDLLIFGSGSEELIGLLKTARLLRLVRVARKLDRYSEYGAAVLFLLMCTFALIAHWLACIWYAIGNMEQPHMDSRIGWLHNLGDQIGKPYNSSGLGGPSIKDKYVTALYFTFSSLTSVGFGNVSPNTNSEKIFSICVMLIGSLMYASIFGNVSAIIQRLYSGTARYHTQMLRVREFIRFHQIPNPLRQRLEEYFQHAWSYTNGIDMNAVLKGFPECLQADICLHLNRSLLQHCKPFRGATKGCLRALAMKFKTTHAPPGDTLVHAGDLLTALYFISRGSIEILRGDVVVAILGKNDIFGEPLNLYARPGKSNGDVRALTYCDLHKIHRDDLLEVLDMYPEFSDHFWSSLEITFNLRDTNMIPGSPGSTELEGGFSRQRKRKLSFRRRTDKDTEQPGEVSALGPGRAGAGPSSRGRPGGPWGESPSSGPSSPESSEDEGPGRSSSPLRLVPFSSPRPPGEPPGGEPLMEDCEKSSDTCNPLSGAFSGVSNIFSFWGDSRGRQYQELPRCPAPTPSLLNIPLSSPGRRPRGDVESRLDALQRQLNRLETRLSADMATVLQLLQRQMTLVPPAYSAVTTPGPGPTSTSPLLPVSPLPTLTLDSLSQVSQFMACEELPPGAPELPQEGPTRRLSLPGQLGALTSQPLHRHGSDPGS
Test: Displacement of [35S]MK-0499 from hERG at 10 uM
Conditions: probe [35S]MK-0499
Decision: inhibition at 10 µM >= 20% yields condition met, all other cases yield condition not met.

Query: hey, is inhibition at 10 µM for this one >= 20%? CC(=O)N[C@H](Cc1ccccc1OC(F)(F)F)C(=O)N[C@@H]1CCc2ccccc2N(C(C)C)C1=O
Result: condition not met

Query: Please tell me: is the compound CC(C)N1C(=O)[C@H](NC(=O)[C@@H](Cc2ccccc2OC(F)(F)F)NC(=O)c2ccc(F)cc2C(F)(F)F)CCc2ccccc21 at or over 20% in terms of inhibition at 10 µM?
Result: condition met

Query: Say whether CC(C)N1C(=O)[C@H](NC(=O)[C@@H](Cc2ccccc2OC(F)(F)F)NC(=O)c2ccc(F)cc2)CCc2ccccc21 shows inhibition at 10 µM of 20% or more.
Result: condition met

Query: Determine whether measured inhibition at 10 µM meets or exceeds 20% for CC(C)N1C(=O)[C@H](NC(=O)[C@@H](Cc2ccccc2F)NC(=O)c2ccc(F)cc2C(F)(F)F)CCc2cc(Cl)ccc21
Result: condition met

Query: inhibition at 10 µM >= 20% for CC(C)N1C(=O)[C@H](NC(=O)[C@@H](Cc2ccccc2OC(F)(F)F)NC(=O)c2ncccn2)CCc2ccccc21 ?
Result: condition not met

Query: Identify whether the reported inhibition at 10 µM of the following compound is 20% or greater: CC(C)N1C(=O)[C@H](NC(=O)[C@@H](Cc2ccccc2OC(F)(F)F)NC(=O)c2ccncc2)CCc2ccccc21
Result: condition met

Query: In plain terms: is recorded inhibition at 10 µM at least 20% for CC(C)N1C(=O)[C@H](NC(=O)[C@@H](Cc2ccccc2OC(F)(F)F)NC(=O)c2ccccc2C(F)(F)F)CCc2ccccc21 ?
Result: condition not met

Query: Test whether the compound CC(C)N1C(=O)[C@H](NC(=O)[C@@H](Cc2ccccc2OC(F)(F)F)NC(=O)c2ccc(F)cc2C(F)(F)F)CCc2cc(Cl)ccc21 records inhibition at 10 µM of 20% or higher.
Result: condition not met

Query: Does CC(C)N1C(=O)[C@H](NC(=O)[C@@H](Cc2cccc(F)c2F)NC(=O)c2ccc(F)cc2C(F)(F)F)CCc2cc(Cl)ccc21 have a reported inhibition at 10 µM of at least 20%?
Result: condition not met

Query: Is it the case that CC(C)N1C(=O)[C@H](NC(=O)[C@@H](Cc2c(F)cccc2F)NC(=O)c2ccc(F)cc2C(F)(F)F)CCc2cc(Cl)ccc21 has inhibition at 10 µM reaching or exceeding 20%?
Result: condition not met

Query: Say whether CC(C)N1C(=O)[C@H](NC(=O)[C@@H](Cc2ccccc2OC(F)(F)F)NC(=O)OC(C)(C)C)CCc2cc(Cl)ccc21 shows inhibition at 10 µM of 20% or more.
Result: condition met

Query: Does CC(C)N1C(=O)[C@H](NC(=O)[C@@H](Cc2ccccc2OC(F)(F)F)NC(=O)C(F)(F)F)CCc2ccccc21 have a reported inhibition at 10 µM of at least 20%?
Result: condition met

Query: Decide: inhibition at 10 µM of CC(C)N1C(=O)[C@H](NC(=O)[C@@H](Cc2ccccc2OC(F)(F)F)NC(=O)C(C)(C(F)(F)F)C(F)(F)F)CCc2ccccc21 >= 20%?
Result: condition not met

Query: Quick check: does CC(C)N1C(=O)[C@H](NC(=O)[C@@H](Cc2ccccc2OC(F)(F)F)NC(=O)OC(C)(C)C)CCc2ccccc21 have inhibition at 10 µM greater than or equal to 20%?
Result: condition not met

Query: Check the entry CC(C)N1C(=O)[C@H](NC(=O)[C@@H](Cc2ccccc2OC(F)(F)F)NC(=O)OC(C)(C)C)COc2ccccc21 : does inhibition at 10 µM equal or exceed 20%?
Result: condition not met
